Catalogue of compounds with associated EC50
Tested on: CMV Davis strain
RUN DESCRIPTION: Anti-CMV activity in HEL cell cultures, Davis strain
Type: cell-based, cytomegalovirus
TEST CONDITIONS: HEL cell cultures; reduce virus plaque formation by 50%; virus input 100 PFU
READOUT TYPE: EC50

| COMPOUND | READOUT TYPE | EXPERIMENTAL RESULT |
| --- | --- | --- |
| OC[C@H]1O[C@@H](n2cnc3c(O)nc(-n4cc(-c5ccccc5)nn4)nc32)[C@H](O)[C@@H]1O [Compound 17] | EC50 | > 50 µM |
| CCCCc1cn(-c2nc(O)c3ncn([C@@H]4O[C@H](CO)[C@@H](O)[C@H]4O)c3n2)nn1 [Compound 23, 2-(4-n-Butyl-1,2,3-triazol-1H-yl)inosine] | EC50 | 39 µM |
| OC[C@H]1O[C@@H](n2cnc3c(O)nc(-n4cc(-c5ccc(F)cc5)nn4)nc32)[C@H](O)[C@@H]1O [Compound 24] | EC50 | > 230 µM |
| Cc1ccc(-c2cn(-c3nc(O)c4ncn([C@@H]5O[C@H](CO)[C@@H](O)[C@H]5O)c4n3)nn2)cc1 [Compound 18] | EC50 | 151 µM |
| O=C1c2ccccc2C(=O)N1Cc1cn(-c2nc(O)c3ncn([C@@H]4O[C@H](CO)[C@@H](O)[C@H]4O)c3n2)nn1 [Compound 21] | EC50 | > 200 µM |
| OCc1cn(-c2nc(O)c3ncn([C@@H]4O[C@H](CO)[C@@H](O)[C@H]4O)c3n2)nn1 [Compound 20] | EC50 | > 270 µM |
